Target: Protein kinase C beta type (Rattus norvegicus)
Experiment: Inhibition of PKCbeta in rat RBL2H3 cells assessed as inhibition of ionomycin-stimulated TNFalpha release preincubated for 15 mins followed by ionomycin stimulation and measured after 3 hrs by ELISA
Assay type: cell-based, RBL-2H3
measured.parameter: pIC50
Reminder that pIC50 is minus the log10 of a molar concentration.

Entry O=C1O/C(=C(/C(=O)O)c2ccc(O)c(O)c2)C(O)=C1c1ccc(O)c(O)c1 : reported pIC50 = ?
4.70

====

Biological target: Protein kinase C beta type (Rattus norvegicus, UniProt P68403)
Sequence (P68403 whole entry): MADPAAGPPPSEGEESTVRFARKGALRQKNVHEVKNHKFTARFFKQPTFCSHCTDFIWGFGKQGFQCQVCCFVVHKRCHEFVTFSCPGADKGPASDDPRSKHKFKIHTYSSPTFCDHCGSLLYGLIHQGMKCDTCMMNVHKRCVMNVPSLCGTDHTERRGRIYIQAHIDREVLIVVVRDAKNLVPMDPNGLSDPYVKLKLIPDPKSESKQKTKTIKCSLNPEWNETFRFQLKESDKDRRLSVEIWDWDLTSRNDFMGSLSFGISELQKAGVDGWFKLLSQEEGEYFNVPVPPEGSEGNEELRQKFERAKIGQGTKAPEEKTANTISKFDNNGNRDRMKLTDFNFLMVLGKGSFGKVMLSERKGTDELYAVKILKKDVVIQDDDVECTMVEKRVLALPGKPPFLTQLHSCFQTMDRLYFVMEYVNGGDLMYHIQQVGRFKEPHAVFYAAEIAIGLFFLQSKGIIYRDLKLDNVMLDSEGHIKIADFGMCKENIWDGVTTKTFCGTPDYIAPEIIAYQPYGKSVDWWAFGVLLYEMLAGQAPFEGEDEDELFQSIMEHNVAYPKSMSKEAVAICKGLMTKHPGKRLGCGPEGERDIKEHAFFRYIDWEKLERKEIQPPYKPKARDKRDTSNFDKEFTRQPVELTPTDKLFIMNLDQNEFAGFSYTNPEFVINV
Assay: Inhibition of PKCbeta in rat RBL2H3 cells assessed as inhibition of anti-DNP IgE-stimulated TNFalpha release preincubated for 15 mins followed by mouse anti-DNP IgE stimulation and measured after 3 hrs by ELISA
Type: cell-based, RBL-2H3
measured.parameter: IC50
Write the numeric value and follow it with the unit.

Value wanted: IC50 (Protein kinase C beta type (Rattus norvegicus, UniProt P68403)) of entry O=C1O/C(=C(/C(=O)O)c2ccc(O)c(O)c2)C(O)=C1c1ccc(O)c(O)c1
16.8 µM
